Source of measurements: patent US20250136614A1

- Tested on: H23
- procedure-details: Cancer cell growth inhibition (CellTiter-Glo, 72 hours)
- Assay type: cell-based
- condition-details: Homo sapiens, NCI-H23, H23 cells, read-out: GI50s (μM) H23
reported-property: IC50

// solved cases for IC50 follow
{"columns": ["mol", "IC50"],
 "data": [
  ["O=C1CCCCOc2ccc(cc2)-c2ccc3cnc(nn23)Nc2cnn(c2)C2CCN(CCCN1)CC2", "< 1 µM"],
  ["O=C1CCCCCCn2cc(cn2)-c2ccc3cnc(nn23)Nc2ccc(cc2)OCCCN1", "1 to 10 µM"]
]}

Proceed to the following item.
Query: Request body: readout IC50, system H23, query "CN1CCCn2cc(cn2)Nc2ncc3ccc(n3n2)-c2ccc(cc2)OCC1" . Return the value.
Reply: < 1 µM

###

- measured-target: Ba/F3 FLT3 (ITD/D835Y) (Homo sapiens, UniProt P36888, D835Y, cells depend on it, form not given)
- procedure-details: Ba/F3 cell growth inhibition (CellTiter-Glo, 72 hours)
- Type: cell-based
- condition-details: read-out: Ba/F3 GI50s (μM) FLT3 (ITD/D835Y)
reported-property: GI50

{"columns": ["compound", "GI50"],
 "data": [
  ["CC(=O)N1CCCn2cc(cn2)Nc2ncc3ccc(n3n2)-c2ccc(cc2)OCC1 [Example 3]", "< 1 µM"],
  ["COc1cccc(NC(=O)N2CCCn3cc(cn3)Nc3ncc4ccc(n4n3)-c3ccc(cc3)OCC2)c1 [Example 7]", "< 1 µM"]
]}

Query: GI50; subject: O=C1CCCCOc2ccc(cc2)-c2ccc3cnc(nn23)Nc2cnn(c2)CCCN1 [Example 36]
Reply: < 1 µM

Query: GI50; subject: CN1CCCn2cc(cn2)Nc2ncc3ccc(n3n2)-c2ccc(cc2)OCC1 [Example 2]
Reply: < 1 µM

###

// values below are reported IC50
- Tested on: Ba/F3 parental
- procedure-details: Ba/F3 cell growth inhibition (CellTiter-Glo, 72 hours)
- Type: cell-based
- condition-details: Mus musculus, BaF3, Ba/F3 parental cells, read-out: Ba/F3 GI50s (μM) parental

{"columns": ["compound", "observed-measurement"],
 "data": [
  ["O=C1CCCCCCOc2ccc(cc2)-c2ccc3cnc(nn23)Nc2cnn(c2)C2CCN(CCCN1)CC2", "1 to 10 µM"],
  ["CS(=O)(=O)Nc1cccc(-c2ccc3cnc(Nc4ccc(N5CCN(CCCCCCCCCCCOc6cccc7c6C(=O)N(C6CCC(=O)NC6=O)C7=O)CC5)cc4)nn23)c1 (centres unmarked)", "1 to 10 µM"],
  ["O=C1CCCCOc2ccc(cc2)-c2ccc3cnc(nn23)Nc2cnn(c2)C2CCN1CC2", "≥ 10 µM"],
  ["O=C1CCCCCCn2cc(cn2)-c2ccc3cnc(nn23)Nc2ccc(cc2)OCCCN1", "≥ 10 µM"],
  ["O=C1CCCCCCOc2ccc(cc2)-c2ccc3cnc(nn23)Nc2cnn(c2)CCCN1", "≥ 10 µM"],
  ["O=C1CCCCOc2ccc(cc2)-c2ccc3cnc(nn23)Nc2cnn(c2)CCCN1", "1 to 10 µM"],
  ["O=C1CCCCCCOc2ccc(cc2F)-c2ccc3cnc(nn23)Nc2ccc(cc2)OCCCN1", "≥ 10 µM"]
]}

Proceed to the following item.
Query: IC50; subject: "c1cc2ccc1Nc1ncc3ccc(n3n1)-c1ccc(cc1)OCCNCCCO2"
Reply: ≥ 10 µM

###

- System: H23
- procedure-details: Cancer cell growth inhibition (CellTiter-Glo, 72 hours)
- Format: cell-based
- condition-details: Homo sapiens, NCI-H23, H23 cells, read-out: GI50s (μM) H23
// values below are reported IC50

{"columns": ["compound", "observed-measurement"],
 "data": [
  ["CS(=O)(=O)Nc1cccc(-c2ccc3cnc(Nc4ccc(N5CCN(CCCOc6cccc7c6C(=O)N(C6CCC(=O)NC6=O)C7=O)CC5)cc4)nn23)c1 (stereo not drawn) [Example 40]", "≥ 10 µM"],
  ["Cc1ncsc1-c1ccc(CNC(=O)[C@@H]2C[C@@H](O)CN2C(=O)[C@@H](NC(=O)COCCN2CCN(c3ccc(Nc4ncc5ccc(-c6cccc(NS(C)(=O)=O)c6)n5n4)cc3)CC2)C(C)(C)C)cc1 [Example 83]", "1 to 10 µM"]
]}

Proceed to the following item.
Query: IC50; subject: O=C1CCCCCCOc2ccc(cc2)-c2ccc3cnc(nn23)Nc2ccc(cc2)N2CCN1CC2 [Example 24]
Reply: 1 to 10 µM

###

// values below are reported GI50
- measured-target: Ba/F3 FLT3 (ITD/D835Y) (Homo sapiens, UniProt P36888, D835Y, cells depend on it, form not given)
- procedure-details: Ba/F3 cell growth inhibition (CellTiter-Glo, 72 hours)
- Format: cell-based
- condition-details: read-out: Ba/F3 GI50s (μM) FLT3 (ITD/D835Y)

Query: GI50; subject: "O=C1CCCCCCn2cc(cn2)-c2ccc3cnc(nn23)Nc2ccc(cc2)OCCCN1"
Reply: 1 to 10 µM

Query: GI50; subject: "O=C1CCCCCCOc2ccc(cc2)-c2ccc3cnc(nn23)Nc2ccc(cc2)OCCCN1"
Reply: 1 to 10 µM

Query: GI50; subject: "CS(=O)(=O)N1CCCn2cc(cn2)Nc2ncc3ccc(n3n2)-c2ccc(cc2)OCC1"
Reply: < 1 µM

Query: GI50; subject: "O=C1CCCCOc2ccc(cc2)-c2ccc3cnc(nn23)Nc2cnn(c2)C2CCN1CC2"
Reply: < 1 µM

Query: GI50; subject: CS(=O)(=O)Nc1cccc(-c2ccc3cnc(Nc4ccc(N5CCN(CCCCCCCCCCCOc6cccc7c6C(=O)N(C6CCC(=O)NC6=O)C7=O)CC5)cc4)nn23)c1 (stereo not drawn)
Reply: 1 to 10 µM

Query: GI50; subject: "c1cc2ccc1Nc1ncc3ccc(n3n1)-c1ccc(cc1)OCCNCCCO2"
Reply: < 1 µM

Query: GI50; subject: "O=C1CCCCCCOc2ccc(cc2)-c2ccc3cnc(nn23)Nc2ccc(cc2)N2CCN(CCCN1)CC2"
Reply: < 1 µM

Query: GI50; subject: CS(=O)(=O)Nc1cccc(-c2ccc3cnc(Nc4ccc(N5CCN(CCCCCCCOc6cccc7c6C(=O)N(C6CCC(=O)NC6=O)C7=O)CC5)cc4)nn23)c1 (stereo not drawn)
Reply: 1 to 10 µM

Query: GI50; subject: "O=C1CCCCCCOc2ccc(cc2F)-c2ccc3cnc(nn23)Nc2ccc(cc2)OCCCN1"
Reply: 1 to 10 µM

Query: GI50; subject: "O=C1COCCOc2ccc(cc2)-c2ccc3cnc(nn23)Nc2cnn(c2)CCCN1"
Reply: < 1 µM

Query: GI50; subject: "O=C1CCCCOc2ccc(cc2)-c2ccc3cnc(nn23)Nc2cnn(c2)C2CCN(CCCN1)CC2"
Reply: < 1 µM

Query: GI50; subject: CS(=O)(=O)Nc1cccc(-c2ccc3cnc(Nc4ccc(N5CCN(CCCOc6cccc7c6C(=O)N(C6CCC(=O)NC6=O)C7=O)CC5)cc4)nn23)c1 (stereo not drawn)
Reply: < 1 µM

Query: GI50; subject: "O=C1COCCOc2ccc(cc2)-c2ccc3cnc(nn23)Nc2ccc(cc2)OCCCN1"
Reply: < 1 µM

Query: GI50; subject: "O=C1CCCCOc2ccc(cc2)-c2ccc3cnc(nn23)Nc2ccc(cc2)OCCCN1"
Reply: < 1 µM

Query: GI50; subject: "O=C1CCCCCCOc2ccc(cc2)-c2ccc3cnc(nn23)Nc2cnn(c2)CCCN1"
Reply: < 1 µM

###

// values below are reported GI50
- measured-target: Ba/F3 FLT3 (ITD) (Homo sapiens, UniProt P36888, cells depend on it, form not given)
- Sequence (P36888 1-993): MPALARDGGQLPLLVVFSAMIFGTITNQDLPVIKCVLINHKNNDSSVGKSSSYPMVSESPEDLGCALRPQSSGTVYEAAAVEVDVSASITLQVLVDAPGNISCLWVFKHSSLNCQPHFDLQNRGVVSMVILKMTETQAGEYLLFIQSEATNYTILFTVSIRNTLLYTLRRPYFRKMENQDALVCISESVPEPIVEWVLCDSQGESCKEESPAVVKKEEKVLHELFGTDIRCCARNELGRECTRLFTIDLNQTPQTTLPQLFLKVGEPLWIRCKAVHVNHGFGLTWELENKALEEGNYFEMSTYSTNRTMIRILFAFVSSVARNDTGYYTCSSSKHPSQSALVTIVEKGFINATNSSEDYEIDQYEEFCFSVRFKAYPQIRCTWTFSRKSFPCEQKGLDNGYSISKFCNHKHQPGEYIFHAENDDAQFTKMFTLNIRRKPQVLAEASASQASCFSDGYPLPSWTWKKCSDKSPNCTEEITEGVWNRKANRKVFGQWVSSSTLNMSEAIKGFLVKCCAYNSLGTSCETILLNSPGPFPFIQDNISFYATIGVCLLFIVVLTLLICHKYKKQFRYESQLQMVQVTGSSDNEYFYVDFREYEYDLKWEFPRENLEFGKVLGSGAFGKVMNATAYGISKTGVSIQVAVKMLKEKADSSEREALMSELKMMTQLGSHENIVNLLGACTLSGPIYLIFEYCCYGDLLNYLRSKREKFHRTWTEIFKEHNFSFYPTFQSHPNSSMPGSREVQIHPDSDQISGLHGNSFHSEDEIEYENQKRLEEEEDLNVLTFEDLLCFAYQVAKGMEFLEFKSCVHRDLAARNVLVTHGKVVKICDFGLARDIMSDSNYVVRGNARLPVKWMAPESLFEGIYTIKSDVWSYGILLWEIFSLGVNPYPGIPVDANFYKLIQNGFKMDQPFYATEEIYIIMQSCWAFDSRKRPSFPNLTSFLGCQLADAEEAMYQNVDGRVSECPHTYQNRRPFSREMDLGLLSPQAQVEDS
- procedure-details: Ba/F3 cell growth inhibition (CellTiter-Glo, 72 hours)
- Type: cell-based
- condition-details: read-out: Ba/F3 GI50s (μM) FLT3 (ITD)

// solved cases for GI50 follow
{"columns": ["compound", "measured-target", "GI50"],
 "data": [
  ["O=C1CCCCCCn2cc(cn2)-c2ccc3cnc(nn23)Nc2ccc(cc2)OCCCN1", "Ba/F3 FLT3 (ITD) (Homo sapiens, UniProt P36888, cells depend on it, form not given)", "1 to 10 µM"],
  ["O=C1CCCCOc2ccc(cc2)-c2ccc3cnc(nn23)Nc2cnn(c2)C2CCN1CC2", "Ba/F3 FLT3 (ITD) (Homo sapiens, UniProt P36888, cells depend on it, form not given)", "< 1 µM"]
]}

Query: GI50; subject: "c1cc2ccc1Nc1ncc3ccc(n3n1)-c1ccc(cc1)OCCNCCCO2"
Reply: < 1 µM

Query: GI50; subject: "O=C1CCCCOc2ccc(cc2)-c2ccc3cnc(nn23)Nc2cnn(c2)C2CCN(CCCN1)CC2"
Reply: < 1 µM

Query: GI50; subject: "CC(=O)N1CCCn2cc(cn2)Nc2ncc3ccc(n3n2)-c2ccc(cc2)OCC1"
Reply: < 1 µM

Query: GI50; subject: "O=C1CCCCCCOc2ccc(cc2F)-c2ccc3cnc(nn23)Nc2ccc(cc2)OCCCN1"
Reply: 1 to 10 µM

Query: GI50; subject: "COc1cc2ccc1Nc1ncc3ccc(n3n1)-c1ccc(cc1)OCCOCC(=O)NCCCO2"
Reply: 1 to 10 µM

Query: GI50; subject: CS(=O)(=O)Nc1cccc(-c2ccc3cnc(Nc4ccc(N5CCN(CCCCCCCOc6cccc7c6C(=O)N(C6CCC(=O)NC6=O)C7=O)CC5)cc4)nn23)c1 (centres unmarked)
Reply: < 1 µM
